Data credit: patent US20260008852A1

target_or_test_system: T1, His-tagged human B7-H3 (human, UniProt Q5ZPR3-2 29-245, limits assumed)
T1 construct: Bought His-tagged protein coated on the ELISA plate; also called hu B7-H3; CD276
T1 sequence (looked up): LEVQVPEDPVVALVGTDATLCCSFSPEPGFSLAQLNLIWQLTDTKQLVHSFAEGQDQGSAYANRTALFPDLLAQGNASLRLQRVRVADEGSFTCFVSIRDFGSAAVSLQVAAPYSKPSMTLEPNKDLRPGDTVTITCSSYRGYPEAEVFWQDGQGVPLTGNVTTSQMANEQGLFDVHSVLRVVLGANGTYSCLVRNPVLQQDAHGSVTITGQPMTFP
test_summary: ELISA OD450 on hu B7-H3 over OD450 on mu B7-H3
result_type: hu:mu ratio

1. 40633p1.1.A6 (scFv, V domains shown, Tested as scFv-Fc (Expi293 supernatant)) VH: EVQLLESGGGLVQPGGSLRLSCAASGFSFSNYDMSWVRQAPGKGLEWVAGIRSGSRTYYADSVKGRFTISRDNSKNTLYLQMNSLRAEDTATYYCGRYFNMDVWGQGTTVTVSS VL: QSVLTQPPSASGTPGQRVTISCSGSTFNIGTNLVHWYQQLPGTAPKLLIYLTDRRPSGVPDRFSGSKSGTSASLAISGLQSEDEANYYCATWDDSLNSFLFGGGTKLTVL ... 1.49
2. 40633p1.2.G9 (scFv, V domains shown, Tested as scFv-Fc (Expi293 supernatant)) VH: EVQLLESGGGLLQPGGSLRLSCAASGFSFSSYGMHWVRQAPGKGLEWVAAINSDGSRIYYADSVEGRFTISRDNSKNTLYLQMNSLRAEDTAVYYCTKYYYHYAMDVWGQGTTVTVSS VL: QSVLTQPPSASGTPGQRVTISCSGSRSDIGATTVNWYQQLPGTAPKLLIYQSHLRPSGVPDRFSGSKSGTSASLAISGLQSEDEADYYCASWDASLNTWVFGGGTKLTVL ... 1.13
3. 40633p1.2.D11 (scFv, V domains shown, Tested as scFv-Fc (Expi293 supernatant)) VH: EVQLESGGGLVQPGGSLRLSCAASGFTVSYYGMSWVRQAPGKGLEWVSAIKQDGSEKYYADSVKGRFTISRDNSKNTLYLQMNSLRAEDTAVYYCARHWNDYSNAMNVWGQGTTVTVSS VL: QSVLTQPPSASGTPGQRVTISCSGSTSNIAIDFVNWYQQLPGTAPKLLIYTIDQRPSGVPDRFSGSKSGTSASLAISGLQSEDEAVYYCASWDASLNGWVFGRGTKLTVL ... 1.49

Dear colleague, could you please provide hu:mu ratio for the binders listed below?
1. 40511p1.2.B5 (scFv, V domains shown, Tested as scFv-Fc (Expi293 supernatant)) VH: DVQLVESGGGVVRPGESLRLSCAASGFTFSSYAMSWVRQAPGEGLEWVSSISGSGGSTLYADSVKGRFTISRDSSNNSLYLQMNSLRAEDTAVYYCAKARNNFFDYWGLGTLVTVSS VL: EIVLTQSPGTLTLSPGERATLSCRASRSILTSLAWYQQRPGQTPRLLIYGANSRATGIPDRFSGSGSGTEFTLTISSLQSEDFAVYYCQQYYDWLTITFGGGTKVEIK
2. 40633p1.2.E1 (scFv, V domains shown, Tested as scFv-Fc (Expi293 supernatant)) VH: EVQLLESGRGLVQPGGSLRLSCAASGFTVSYYGMSWVRQAPGKGLEWVSVIKQDGSEEYYADSVKGRFTISRDNSKNTLYLQMNSLRAEDTAVYYCARHWNDYSNGMNVWGQGTTVTVSS VL: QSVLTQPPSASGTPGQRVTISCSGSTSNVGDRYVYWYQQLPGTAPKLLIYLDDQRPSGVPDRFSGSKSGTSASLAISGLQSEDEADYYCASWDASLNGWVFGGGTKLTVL
3. 40633p1.1.G11 (scFv, V domains shown, Tested as scFv-Fc (Expi293 supernatant)) VH: EVQLLESGGGLVQPGGSLRLSCAASGFTVSYYGMSWVRQAPGKGLEWVSVIKQDGSEEYYADSVKGRFTISRDNSKNTLYLQMNSPRAEDTAVYYCARHWNDYSNGMNVWGQGTTVTVSS VL: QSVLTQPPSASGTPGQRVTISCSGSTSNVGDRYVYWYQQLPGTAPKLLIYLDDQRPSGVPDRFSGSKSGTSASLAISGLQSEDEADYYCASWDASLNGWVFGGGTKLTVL
4. 40511p1.1.D6 (scFv, V domains shown, Tested as scFv-Fc (Expi293 supernatant)) VH: DVQLVESGGGVVRPGESLTLSCAASGFTINSYAVSWVRQAPGEGLEWVSGISGSGVRYYADSVKGRFTISRDNSNNTLYLQMNSLRAEDTAVYYCARSNKVTWNNFFDYWGLGTLVTVSS VL: EVVLTQSPGTLTLSPGERATLSCRASRSILTSLAWYQQKPGQAPRLLIYNTVTRATGIPARFSGSGSGTEFTLTINSLQSEDFAVYYCQQYYDWPPLTFGGGTKVEIK

-- reply
1: 2.78; 2: 0.961; 3: 1.12; 4: 1.19

Dear colleague, could you please provide hu:mu ratio for the binders listed below?
1. 40633p1.2.C3 (scFv, V domains shown, Tested as scFv-Fc (Expi293 supernatant)) VH: EVQLLESGGGLVQPGGSLRLSCAASGFTVSYYGMSWVRQAPGKGLEWVSAIKQDGSEKYYADSVKGRFTISRDNSKNTLYLQMNSLRAEDTAVYYCARHWNDYSNAMNVWEQGTTVTVSS VL: QSVLTQPPSASGTPGQRVTISCSGSNSNVGGNYVSWYQQLPGTAPKLLIYRNSQRPSGVPDRFSGSKSGTSASLAISGLQSEDEAVYYCASWDASLNGWVFGGGTKLTVL
2. 40633p1.1.B12 (scFv, V domains shown, Tested as scFv-Fc (Expi293 supernatant)) VH: EVQLLESGGGLLQPGGSLRLSCAASGFSFSSYGMHWVRQAPGKGLEWVAAINSDGSRIYYADSVKGRFTISRDNSKNTLYLQMNSLRAEDTAVYYCTKYYYHYAMDVWGQGTTVTVSS VL: QSVLTQPPSASGTPGQRVTISCSGSRSDIGATTVNWYQQLPGTAPKLLTYQSHLRPSGVPDRFSGSKSGTSASLAISGLQSEDEADYYCASWDASLNTWVFGGGTKLTVL
3. 40633p1.1.H11 (scFv, V domains shown, Tested as scFv-Fc (Expi293 supernatant)) VH: EVQLLESGGGLVQPGGSLRLSCAASGFTFSSYPMTWVRQAPGKGLEWVADINSGGGTTLYADAVKGRFTISRDNSKNIVYLQMNSLRGEDTAVYYCAKHLDYYSYGMDVWGQGTTVTVSS VL: QSVLTQPPSASGTPGQRVTISCSGVTSKIGSKYVHWYQQLPGTAPKLLIYRNFERPSGVPDRFSGSTSGTSASLAISGLQSEDEADYYCATWEGALNGWVFGGGTKLTVL

-- reply
1. 2.01
2. 1.04
3. 1.1
